# System: HS 578T breast
# measurementProtocol: NCI-60 one-dose screen, 48 h (100 = growth as untreated, 0 = no growth, -100 = all killed)
# conditionLabel: 10 µM unless noted
Compounds without any hit were thinned out: in the full panel of roughly 83,000, 20% have a hit.
resultType: growth (%)
A number alone suffices; assume %.

{"columns": ["querySmiles", "targetOrSystem", "growth [%]"],
 "data": [
  ["CC(C)(C)CC(C)(C)Cc1ccc(OCCOCC[N+](C)(C)Cc2ccccc2)cc1", "HS 578T breast", 26.3],
  ["CCCCn1c(=O)c(/C=C/C(=O)/C=C/c2ccc(O)c(OC)c2)cc2ccc(Cl)cc21", "HS 578T breast", 47.8],
  ["COc1ccc2[nH]c(=O)c(/C=C/C(=O)/C=C/c3ccc(O)c(OC)c3)cc2c1", "HS 578T breast", 25.5],
  ["Nc1c(C(=O)Nc2ccccc2Cl)sc2nc3c(cc12)CN(Cc1ccccc1)CC3", "HS 578T breast", 108]
]}

Ask: Identify measured growth corresponding to `CN(C)C1=NCCN1`
Reply: 106

Ask: Assign growth to the following record: `COc1cc(-c2csc(NC(=O)Nc3cc(Cl)cc(Cl)c3)n2)cc(OC)c1OC`
Reply: -18.2

====

# System: NCI-H460 lung
# measurementProtocol: NCI-60 one-dose screen, 48 h
# conditionLabel: 10 µM unless noted
This is part of a sample that, as a whole, favours compounds with a hit. Of some 83,000 tested, about 20% had one in any assay. Active and inactive are the calls of the source. The calls were made as follows: active = growth percent below 10; inactive = the rest.
Your response should consist of one outcome taken from active, inactive

The examples below pair each entry with its known result.
{"columns": ["compound", "labelValue"],
 "data": [
  ["CCOc1ccc(C2N(c3cc(OC)c(OC)c(OC)c3)C(=O)C2(F)F)cc1 (stereo not drawn)", "inactive"],
  ["COc1cc(NCC(=O)Nc2cc(Nc3ccc(C)cc3)ncn2)c(Cl)c(OC)c1Cl", "inactive"],
  ["COc1cc(C2=NNC(c3ccc(N(C)C)cc3)C2)cc(OC)c1OC (stereo not drawn)", "inactive"],
  ["C#CCN(CCCOc1ccc(Cl)cc1Cl)CCCSC(=O)CCCCCN1/C(=C\\C=C2/CCCC(/C=C/C3=[N+](CCCCCC(=O)[O-])c4ccccc4C3(C)C)=C2Cl)C(C)(C)c2ccccc21", "inactive"],
  ["C#C[C@@]1(O)[C@@H](CO)O[C@@H](n2cnc3c(-c4ccccc4)ncnc32)[C@@H]1O", "inactive"]
]}

Ask: What did this assay record as the result for FC(F)(F)c1ccc2c(Nc3cccc(C4CC(c5ccccc5)=NN4c4ccc(Cl)cc4)c3)ccnc2c1 (stereo not drawn) ?
Reply: inactive

Ask: Each compound tested received a call. Report the one for `Cc1cc(Nc2nc(SCc3ccc(C(=O)Nc4ccc(F)cc4N)cc3)nn3cccc23)n[nH]1` .
Reply: active

Ask: Fill in: this test's call for `N#Cc1c(-c2ccc(F)cc2)nc(N/N=C/c2c[nH]c3ccccc23)nc1N1CCOCC1` is ___
Reply: inactive

====

# Test system: RPMI-8226 leukemia
# measurementProtocol: NCI-60 one-dose screen, 48 h (100 = growth as untreated, 0 = no growth, -100 = all killed)
# conditionLabel: 10 µM unless noted
This is part of a sample that, as a whole, favours compounds with a hit. Of some 83,000 tested, about 20% had one in any assay.
We'd kindly ask you to apply these growth classes: bin A (below 10%), bin B (10% to below 80%), bin C (80% or more)

Worked set:
{"columns": ["molecule", "labelValue"],
 "data": [
  ["CSc1nc(-c2ccco2)c2c(N)[nH]nc2n1", "bin C"],
  ["C=C1C(=O)O[C@H]2[C@H]1CC/C(COC(=O)c1cccnc1N)=C\\CC[C@@]1(C)O[C@@H]21", "bin A"],
  ["C[C@H]1[C@H](C)CC[C@]2(C(=O)OCCCC[P+](c3ccccc3)(c3ccccc3)c3ccccc3)CC[C@]3(C)C(=CC[C@@H]4[C@@]5(C)CC[C@H](OC(=O)C(Cl)Cl)C(C)(C)[C@@H]5CC[C@]43C)[C@H]12", "bin A"],
  ["COc1ccc(-c2cc(-c3nnc(SCC(=O)Nc4ccc(/C(C)=N\\O)cc4)o3)c3ccccc3n2)cc1", "bin C"],
  ["COC(=O)/C=C1\\SC(=Nc2ccc(F)cc2)N(CCc2c[nH]c3ccccc23)C1=O", "bin C"],
  ["CC1CCCN(CCCCCOc2ccc3oc4ccccc4c(=O)c3c2)C1 (centres undefined)", "bin B"]
]}

Ask: Which bin, given its growth, does `Cc1cc(O)cc(O)c1N=NC1=NCCS1` occupy?
Reply: bin C

Ask: Assign a bin to `C#C[C@@]1(O)[C@@H](CO)O[C@@H](n2ccc3c(N)ncnc32)[C@@H]1O`
Reply: bin A

Ask: Pick a category. Item: `O=C(CN1N=C(c2ccc(F)cc2)CCC1=O)Nc1nc2ccccc2s1`
Reply: bin B

Ask: Determine which band this molecule sits in: `O=C(Nc1cccc(-c2cccc(F)c2)c1)C1CCN(Cc2cccc3cccnc23)CC1`
Reply: bin B

Ask: Which band does `COc1ccc2cc(/C=C3\N=C(c4cc(OC)c(OC)c(OC)c4)OC3=O)c(OC)nc2c1` fall in?
Reply: bin C

Ask: For the record `COc1ccc(-n2cc(COc3ccc4c5ccnc(C)c5n(CC(C)C)c4c3)nn2)cc1` , report the class its growth corresponds to.
Reply: bin B

Reference for the values: PubChem BioAssay (NCI)
